Provenance of the data: PubChem BioAssay (NCATS)

tested on: PA-1; assay: Primary qHTS to identify gynecologic anti-cancer compounds using libraries of approved drugs and bioactive compounds (AID 1345084); settings: Gynecologic cancer cell panel viability, ATPlite luminescence, 48 h; series mostly up to 57.5 µM; further: nearly all actives have a fitted effect of over 55% in size
Inconclusive results are not listed. The source made the active and inactive calls. The call rests on the fitted dose curve; in most records, active means well fitted cell-killing curve with a large enough effect; inconclusive means small, poorly fitted or top-dose-only effect, or effect the other way; inactive means flat fitted curve, though single readings scatter.
Can you answer with just one of these options? active, inactive

# example entries with known answers
Could you please tell me the result logged for CCC(=O)O[C@]1(C(=O)COC)[C@@H](C)C[C@H]2[C@@H]3CCC4=CC(=O)C=C[C@]4(C)C3(F)[C@@H](O)C[C@@]21C (some centres not stated) in this assay?
inactive

CC(C)(C)c1ccc(C(=O)CCCCl)cc1 , same question.
inactive

C[N+]1(CC2COC(c3ccccc3)(c3ccccc3)O2)CCCCC1 (configuration not stated) , same question.
inactive

Cc1oc(=O)oc1COC(=O)[C@@H]1N2C(=O)[C@@H](NC(=O)[C@H](N)c3ccccc3)[C@H]2SC1(C)C , same question.
inactive

Next:
Could you please tell me the result logged for Cc1c(N)cccc1C(F)(F)F in this assay?
inactive

CCN(CC)CC(=O)OCC(=O)[C@@]1(O)CC[C@H]2[C@@H]3CCC4=CC(=O)CC[C@]4(C)[C@H]3[C@@H](O)C[C@@]21C , same question.
inactive

Cc1ccc(O)cc1 , same question.
inactive

C[N+](C)(CCOc1ccccc1)Cc1cccs1 , same question.
inactive

CC(Oc1c(Cl)cccc1Cl)C1=NCCN1 (configuration not stated) , same question.
inactive

CCCCCCCCCCCCCCCC[N+](C)(C)Cc1ccccc1 , same question.
active

COc1ccc2c(c1)CCCC2=O , same question.
inactive

* * *

assay: Cell Viability - LYMP2-010 (AID 981); conditions: LYMP2-010 lymphoblastoid cell viability, qHTS; series mostly up to 92.2 µM;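 further: cells exposed to compound for 24 hours at 37 °C; nearly all actives have a fitted effect of over 55% in size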
Inconclusive results are not listed. Active and inactive are the calls of the source. Calls come from the whole dose curve; as a rule, active = well fitted cell-killing curve with a large enough effect; inconclusive = small, poorly fitted or top-dose-only effect; inactive = flat fitted curve, though single readings scatter.
Can you answer with just one of these options? active, inactive

# example entries with known answers
Could you please tell me the result logged for Brc1ccccc1-c1ccccc1 in this assay?
inactive

O=C(c1ccccc1)c1ccccc1 , same question.
inactive

Nc1c2ccccc2nc2ccccc12 , same question.
active

Cc1ccc(O)cc1 , same question.
inactive

CC(=O)OC/C=C(C)/C=C/C=C(C)/C=C/C1=C(C)CCCC1(C)C , same question.
active

Next:
Could you please tell me the result logged for CCCCCCCCCCCCCCCC[n+]1ccccc1 in this assay?
active

CC(C)(C)c1ccc(O)c(O)c1 , same question.
active

c1ccc2occc2c1 , same question.
inactive

* * *

tested on: C33A; assay: Primary qHTS to identify gynecologic anti-cancer compounds using libraries of approved drugs and bioactive compounds (AID 1345084); details: Gynecologic cancer cell panel viability, ATPlite luminescence, 48 h; series mostly up to 57.5 µM; further: nearly all actives have a fitted effect of over 55% in size
Results filed as inconclusive are left out. Activity calls are given as the source filed them. Calls follow the shape of the dose curve; as a rule, active = well fitted cell-killing curve with a large enough effect; inconclusive = small, poorly fitted or top-dose-only effect, or effect the other way; inactive = flat fitted curve, though single readings scatter.
Can you answer with just one of these options? active, inactive

# example entries with known answers
Could you please tell me the result logged for OCCCc1ccccc1 in this assay?
inactive

C1=CC2C3C=CC(C3)C2C1 (stereo not given) , same question.
inactive

C/C(=N/NC(=O)c1ccncc1)C(=O)O , same question.
inactive

Cn1cc(S(C)=O)c(=O)c2ccc(F)cc21 (stereo not given) , same question.
inactive

Next:
Could you please tell me the result logged for CCOC(=O)OCC/C(SC(=O)OCC)=C(\C)N(C=O)Cc1cnc(C)nc1N in this assay?
inactive

O=C(O)c1[nH]n(-c2ccc(S(=O)(=O)O)cc2)c(=O)c1N=Nc1ccc(S(=O)(=O)O)cc1 , same question.
inactive
